Biological target: full-length human ATR protein (Homo sapiens (Human), UniProt Q13535)
Sequence (Q13535 other isoform, or with tags, fused parts or gaps): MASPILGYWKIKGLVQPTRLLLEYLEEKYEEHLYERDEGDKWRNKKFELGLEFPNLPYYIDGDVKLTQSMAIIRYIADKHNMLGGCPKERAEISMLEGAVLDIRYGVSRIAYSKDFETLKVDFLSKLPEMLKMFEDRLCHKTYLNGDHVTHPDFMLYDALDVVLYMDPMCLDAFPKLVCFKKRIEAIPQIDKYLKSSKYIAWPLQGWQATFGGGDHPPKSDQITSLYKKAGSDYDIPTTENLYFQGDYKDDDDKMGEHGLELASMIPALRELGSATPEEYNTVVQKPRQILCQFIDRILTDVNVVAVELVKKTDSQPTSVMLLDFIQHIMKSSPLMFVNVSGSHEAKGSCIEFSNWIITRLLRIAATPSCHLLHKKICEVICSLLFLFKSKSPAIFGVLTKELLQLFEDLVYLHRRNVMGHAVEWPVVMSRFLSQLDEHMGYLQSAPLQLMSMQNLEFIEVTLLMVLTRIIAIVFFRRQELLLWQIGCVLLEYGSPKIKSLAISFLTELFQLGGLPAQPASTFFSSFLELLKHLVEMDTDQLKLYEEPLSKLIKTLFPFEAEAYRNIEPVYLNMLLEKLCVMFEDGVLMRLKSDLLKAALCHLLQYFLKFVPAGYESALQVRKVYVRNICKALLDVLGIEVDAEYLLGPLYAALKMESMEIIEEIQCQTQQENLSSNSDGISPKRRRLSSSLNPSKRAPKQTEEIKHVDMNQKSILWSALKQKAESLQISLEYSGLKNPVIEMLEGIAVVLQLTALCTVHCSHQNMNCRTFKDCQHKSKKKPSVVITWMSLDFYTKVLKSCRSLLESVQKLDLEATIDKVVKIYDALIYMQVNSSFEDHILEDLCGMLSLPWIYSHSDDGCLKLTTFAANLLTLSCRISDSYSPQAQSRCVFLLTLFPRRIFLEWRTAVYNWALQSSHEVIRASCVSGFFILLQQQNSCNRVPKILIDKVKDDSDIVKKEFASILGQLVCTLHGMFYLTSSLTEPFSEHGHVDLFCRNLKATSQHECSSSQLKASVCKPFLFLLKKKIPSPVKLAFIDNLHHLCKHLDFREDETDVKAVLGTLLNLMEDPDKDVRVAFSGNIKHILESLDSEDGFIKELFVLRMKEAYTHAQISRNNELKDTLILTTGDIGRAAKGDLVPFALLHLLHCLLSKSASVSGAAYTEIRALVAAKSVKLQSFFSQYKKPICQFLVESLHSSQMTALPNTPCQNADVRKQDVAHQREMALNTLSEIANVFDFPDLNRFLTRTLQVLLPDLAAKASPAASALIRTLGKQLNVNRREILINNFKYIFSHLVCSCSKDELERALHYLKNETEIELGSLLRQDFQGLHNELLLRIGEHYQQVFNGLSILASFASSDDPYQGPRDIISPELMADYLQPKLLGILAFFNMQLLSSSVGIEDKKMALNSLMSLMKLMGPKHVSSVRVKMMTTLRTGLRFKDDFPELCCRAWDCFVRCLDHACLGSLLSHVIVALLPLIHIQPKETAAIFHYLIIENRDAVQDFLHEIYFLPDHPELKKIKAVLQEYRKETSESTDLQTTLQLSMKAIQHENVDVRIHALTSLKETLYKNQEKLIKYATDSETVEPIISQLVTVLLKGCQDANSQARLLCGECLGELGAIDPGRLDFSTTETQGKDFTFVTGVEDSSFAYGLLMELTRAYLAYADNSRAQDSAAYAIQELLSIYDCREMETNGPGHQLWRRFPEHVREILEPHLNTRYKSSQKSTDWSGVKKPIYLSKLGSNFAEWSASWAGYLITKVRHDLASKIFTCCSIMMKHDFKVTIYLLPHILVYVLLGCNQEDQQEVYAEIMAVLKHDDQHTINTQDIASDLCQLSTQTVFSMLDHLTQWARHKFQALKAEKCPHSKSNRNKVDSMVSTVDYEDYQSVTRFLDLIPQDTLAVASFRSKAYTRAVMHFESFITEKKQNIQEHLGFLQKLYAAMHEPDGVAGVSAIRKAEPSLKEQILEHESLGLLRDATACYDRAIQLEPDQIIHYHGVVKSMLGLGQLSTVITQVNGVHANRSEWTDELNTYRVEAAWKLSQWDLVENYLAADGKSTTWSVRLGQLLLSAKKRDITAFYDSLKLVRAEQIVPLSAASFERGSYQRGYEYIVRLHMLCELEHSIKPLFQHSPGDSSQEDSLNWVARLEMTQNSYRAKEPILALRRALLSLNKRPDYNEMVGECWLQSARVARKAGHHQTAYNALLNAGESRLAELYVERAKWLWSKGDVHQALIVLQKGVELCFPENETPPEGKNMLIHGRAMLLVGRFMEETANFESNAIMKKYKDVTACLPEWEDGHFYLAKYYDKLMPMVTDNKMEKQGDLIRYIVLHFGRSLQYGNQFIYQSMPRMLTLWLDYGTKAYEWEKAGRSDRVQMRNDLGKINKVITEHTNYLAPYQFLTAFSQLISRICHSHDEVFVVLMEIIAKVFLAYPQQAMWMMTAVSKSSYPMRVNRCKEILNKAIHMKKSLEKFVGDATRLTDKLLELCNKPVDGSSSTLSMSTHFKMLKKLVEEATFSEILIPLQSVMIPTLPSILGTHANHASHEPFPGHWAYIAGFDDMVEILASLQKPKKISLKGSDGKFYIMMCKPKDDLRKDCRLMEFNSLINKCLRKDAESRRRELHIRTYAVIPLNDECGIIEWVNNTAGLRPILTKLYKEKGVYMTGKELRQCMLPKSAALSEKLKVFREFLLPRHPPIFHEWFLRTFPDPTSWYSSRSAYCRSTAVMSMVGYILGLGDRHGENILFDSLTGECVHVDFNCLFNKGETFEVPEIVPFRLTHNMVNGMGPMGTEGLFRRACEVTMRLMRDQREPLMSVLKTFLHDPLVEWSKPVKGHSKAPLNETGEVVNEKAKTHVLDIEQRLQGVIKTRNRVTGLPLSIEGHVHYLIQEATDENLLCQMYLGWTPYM
Sequence (Q8WXE1 other isoform, or with tags, fused parts or gaps partner): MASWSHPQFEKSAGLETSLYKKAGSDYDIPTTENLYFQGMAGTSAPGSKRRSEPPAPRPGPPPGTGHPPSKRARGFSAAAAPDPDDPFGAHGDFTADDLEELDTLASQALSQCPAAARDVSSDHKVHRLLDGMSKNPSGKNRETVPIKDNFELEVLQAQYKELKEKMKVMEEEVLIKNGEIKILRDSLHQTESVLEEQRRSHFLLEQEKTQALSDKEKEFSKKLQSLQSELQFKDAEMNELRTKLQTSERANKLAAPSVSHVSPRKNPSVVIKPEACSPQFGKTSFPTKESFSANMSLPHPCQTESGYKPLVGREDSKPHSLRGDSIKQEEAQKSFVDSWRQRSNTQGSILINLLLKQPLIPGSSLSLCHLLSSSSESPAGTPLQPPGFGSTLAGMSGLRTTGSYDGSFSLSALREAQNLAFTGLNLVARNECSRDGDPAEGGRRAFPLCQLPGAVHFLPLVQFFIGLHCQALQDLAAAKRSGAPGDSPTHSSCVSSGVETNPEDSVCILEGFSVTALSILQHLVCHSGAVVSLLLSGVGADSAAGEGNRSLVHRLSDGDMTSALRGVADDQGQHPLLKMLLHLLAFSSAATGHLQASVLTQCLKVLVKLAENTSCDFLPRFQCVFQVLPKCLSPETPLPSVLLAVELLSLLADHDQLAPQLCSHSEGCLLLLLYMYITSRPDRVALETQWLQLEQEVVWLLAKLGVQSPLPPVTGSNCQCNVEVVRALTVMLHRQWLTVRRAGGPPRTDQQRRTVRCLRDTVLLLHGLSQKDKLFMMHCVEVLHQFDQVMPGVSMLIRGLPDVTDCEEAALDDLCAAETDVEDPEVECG
Test: Binding assay ATR (TR-FRET tracer displacement)
Details: tracer A, TR-FRET; read-out: ATR binding (tracer A) IC50
IC50 strictly less than 80 nM = true. Otherwise false.

Previously resolved entries follow.
C[C@@H]1COCCN1c1cc(OCCCCN)c2ccnc(-c3ccn[nH]3)c2n1: false
CC(C)(C)n1cc(-c2cc(N3CCOCC3)nc3c(-c4ccn[nH]4)nccc23)cn1: false

QUERY: Quick check: IC50 of Cc1ncc(-c2cc(N3CCOC[C@H]3C)nc3c(-c4ccn[nH]4)nccc23)cc1F under 80 nM?
RESULT: true

QUERY: Quick check: IC50 of CC(C)CN(C)c1cc(N2CCOCC2)nc2c(-c3ccn[nH]3)nccc12 under 80 nM?
RESULT: false

QUERY: Quick check: IC50 of C[C@@H]1COCCN1c1cc(OCCN)c2ccnc(-c3ccn[nH]3)c2n1 under 80 nM?
RESULT: false

QUERY: Quick check: IC50 of CCSc1cc(N2CCOCC2)nc2c(-c3ccn[nH]3)nccc12 under 80 nM?
RESULT: false

QUERY: Quick check: IC50 of C[C@@H]1COCCN1c1cc(-c2[nH]nnc2C2CC2)c2ccnc(-c3ccn[nH]3)c2n1 under 80 nM?
RESULT: true

QUERY: Quick check: IC50 of COc1ccc(Sc2cc(N3CCOC[C@H]3C)nc3c(-c4ccn[nH]4)nccc23)cc1 under 80 nM?
RESULT: true
